Would you mind telling me the reported pIC50 of each entry?
- System: Vaccinia virus
- procedure-text: Inhibition of Vaccinia virus DNA synthesis in by rapid plate assay
- Assay type: functional, organism-based
- applied-conditions: Orthopoxvirus vaccinia
One number for each entry, as −log10 of the molar value.

Value sought for every listed compound: pIC50.
1. CCN1C(=O)/C(=C\C=C\c2ccco2)C(=O)NC1=S
2. CC1=CC(C)(C)N=C(Nc2nc(C)c3cc(C)cc(C)c3n2)N1
3. O=C(O)c1ccc(CS(=O)(=O)c2ccccc2)o1
4. CC[n+]1cc(/C=C2\SC=CN2C)c(C)c2cc(OC)c3ccccc3c21
5. C/N=C1/c2c(C)c3cc(OC)ccc3n2CCN1C
6. Cc1cc(OC(=O)c2ccco2)nc(SCc2c(Cl)cccc2Cl)n1
7. Cc1cc(NCCN2CCCCC2)c2ccc3ccccc3c2n1
8. Cc1ccc2c(Sc3ccc(Cl)cc3)c(C(=O)O)[nH]c2c1

Marked response:
1. 3.80
2. 5.28
3. 5.13
4. 5.46
5. 4.05
6. 4.28
7. 5.22
8. 4.37

Data origin, for the record: ChEMBL document CHEMBL1140145
